Biological target: SIX1-Q177R homeodomain (human, UniProt Q15475 108-198, Q177R)
Sequence: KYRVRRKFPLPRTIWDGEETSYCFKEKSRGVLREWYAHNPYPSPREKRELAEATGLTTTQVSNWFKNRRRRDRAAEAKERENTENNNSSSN
Test: universal protein binding microarray; Universal all-10-mer PBM (8x60K, AMADID 030236), 300 nM GST-tagged protein, Alexa Fluor 488 anti-GST; buffer, salt, pH and temperature not stated (as in Berger); high values mean tight binding
Conditions: protein: ivt; tags: N-terminal GST; dsDNA, one strand shown
Whole data set: some 33,000 sequences, median “e-score” near -0.05, cut for the highest 2% near 0.38. The list comes from a sample in which the highest values are over-represented; it also holds close analogues and randomly drawn sequences.
observed_property: binding signal

INPUT: Any idea what binding signal was measured for `AGGTGTAA` ?
OUTPUT: 0.463 E-score

INPUT: Any idea what binding signal was measured for `AGTGTGGA` ?
OUTPUT: 0.162 E-score

INPUT: Any idea what binding signal was measured for `TGGTGCAA` ?
OUTPUT: 0.169 E-score

INPUT: Any idea what binding signal was measured for `CGTGTGGC` ?
OUTPUT: 0.181 E-score

---

Biological target: SIX1-Q177R homeodomain (human, UniProt Q15475 108-198, Q177R)
Sequence: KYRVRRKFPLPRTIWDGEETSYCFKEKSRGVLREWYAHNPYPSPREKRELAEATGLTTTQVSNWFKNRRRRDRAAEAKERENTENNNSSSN
Assay: universal protein binding microarray; Universal all-10-mer PBM (8x60K, AMADID 030236), 300 nM GST-tagged protein, Alexa Fluor 488 anti-GST; buffer, salt, pH and temperature not stated (as in Berger); high values mean tight binding
Conditions: protein: ivt; tags: N-terminal GST; dsDNA, one strand shown
In all, about 33,000 sequences were measured (“e-score”: median about -0.05, highest 2% from about 0.38 on). The entries come from a sample that favours the highest values as a whole.
observed_property: binding signal (E-score)
Report the value in E-score with no unit label.

INPUT: Any idea what binding signal was measured for `CGGTGCAC` ?
OUTPUT: 0.296

INPUT: Any idea what binding signal was measured for `GAGTGCAC` ?
OUTPUT: 0.195

INPUT: Any idea what binding signal was measured for `GGATCACC` ?
OUTPUT: 0.203

INPUT: Any idea what binding signal was measured for `CCACCCGA` ?
OUTPUT: 0.206

INPUT: Any idea what binding signal was measured for `ACCCCTAC` ?
OUTPUT: 0.294

INPUT: Any idea what binding signal was measured for `TCGGGTCA` ?
OUTPUT: 0.197

INPUT: Any idea what binding signal was measured for `ACCCCCGG` ?
OUTPUT: 0.305

INPUT: Any idea what binding signal was measured for `CCACCGGA` ?
OUTPUT: 0.203

INPUT: Any idea what binding signal was measured for `AAACGGTG` ?
OUTPUT: 0.308

---

Target: SIX1-Q177R homeodomain (human, UniProt Q15475 108-198, Q177R)
Sequence: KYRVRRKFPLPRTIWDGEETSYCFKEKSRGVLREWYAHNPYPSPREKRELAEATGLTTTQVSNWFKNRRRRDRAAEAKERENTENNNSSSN
Test: universal protein binding microarray; Universal all-10-mer PBM (8x60K, AMADID 030236), 300 nM GST-tagged protein, Alexa Fluor 488 anti-GST; buffer, salt, pH and temperature not stated (as in Berger); high values mean tight binding
Settings: protein: ivt; tags: N-terminal GST; dsDNA, one strand shown
Whole data set: some 33,000 sequences, median “e-score” near -0.05, cut for the highest 2% near 0.38. The full list was thinned out, with the highest values kept by preference.
// boundary case: binding signal equal to 0.2 E-score maps to Condition not met; strictly smaller maps to Condition met

INPUT: Report whether reported binding signal is lower than 0.2 E-score (strictly) for `CACCCGGG`
OUTPUT: Condition not met

INPUT: Report whether reported binding signal is lower than 0.2 E-score (strictly) for `CCCGACCC`
OUTPUT: Condition met

INPUT: Report whether reported binding signal is lower than 0.2 E-score (strictly) for `CGGGTGGC`
OUTPUT: Condition met

INPUT: Report whether reported binding signal is lower than 0.2 E-score (strictly) for `CGGGTGTC`
OUTPUT: Condition not met

INPUT: Report whether reported binding signal is lower than 0.2 E-score (strictly) for `CCCCTACG`
OUTPUT: Condition met

INPUT: Report whether reported binding signal is lower than 0.2 E-score (strictly) for `GGGGTGAA`
OUTPUT: Condition met

INPUT: Report whether reported binding signal is lower than 0.2 E-score (strictly) for `CGTACACC`
OUTPUT: Condition not met

INPUT: Report whether reported binding signal is lower than 0.2 E-score (strictly) for `CACCTCAG`
OUTPUT: Condition not met

INPUT: Report whether reported binding signal is lower than 0.2 E-score (strictly) for `ACCCGATA`
OUTPUT: Condition not met

INPUT: Report whether reported binding signal is lower than 0.2 E-score (strictly) for `AGTACACA`
OUTPUT: Condition not met

INPUT: Report whether reported binding signal is lower than 0.2 E-score (strictly) for `CATTGGGG`
OUTPUT: Condition met

INPUT: Report whether reported binding signal is lower than 0.2 E-score (strictly) for `GGTACACC`
OUTPUT: Condition not met

INPUT: Report whether reported binding signal is lower than 0.2 E-score (strictly) for `ACCTCGGA`
OUTPUT: Condition met

INPUT: Report whether reported binding signal is lower than 0.2 E-score (strictly) for `CACCCCTA`
OUTPUT: Condition not met

INPUT: Report whether reported binding signal is lower than 0.2 E-score (strictly) for `CGTACACG`
OUTPUT: Condition not met

INPUT: Report whether reported binding signal is lower than 0.2 E-score (strictly) for `CGGCTACG`
OUTPUT: Condition met

INPUT: Report whether reported binding signal is lower than 0.2 E-score (strictly) for `CCCAAACG`
OUTPUT: Condition met

The origin of these recorded values is paper PMC10668032.
